Data credit: PubChem BioAssay (NCI)

Tested on: LOX IMVI melanoma
A correct response names exactly one class from active, inactive

# example entries with known answers
Cc1cccc(CN(C)c2ccc(CO)c(Cl)c2)c1    inactive
COc1cc2c(cc1OC)C(CCc1ccc(Cl)cc1)N(C)CC2 (stereo unspecified)    inactive
CCCc1cc(=O)oc2c(C(=O)CC(C)C)c(O)c(CC=C(C)C)c(O)c12    inactive
COc1ccc2c(c1)C(=O)c1c-2n(CCCN=[N+]=[N-])c(=O)c2ccccc12    inactive
O=C1NC(=NCC(CO)c2ccccc2)S/C1=C\c1ccc2ncccc2c1 (stereo unspecified)    inactive

Let us examine a further case.
Query :: Each compound tested received a call. Report the one for CC/C(=N\Nc1nc2ccccc2n1C)c1ccccn1 .
Result :: active
